Reference for the values: patent US20120053148A1

Let's look at some molecules and their measured inhibition at 10 µM.
Test system: HCV Replicon IB
test: HCV replicon assay in Huh-7 cells, genotype 1b (Rluc luciferase readout)
Format: cell-based, hepatitis C virus
condition_summary: Hepatitis C virus, 72 h; 10 uM; 1b-Rluc replicon, Huh-7 cells, 3 days; read-out: Inhibition @ 10 uM in 1b-Rluc
Record the result as number plus unit.

Below: 7 molecules and their reported inhibition at 10 µM.
{"columns": ["molecule", "inhibition at 10 µM"],
 "data": [
  ["Cc1cc(C(=O)NCc2ccccn2)nc2c(C(F)(F)F)cc(C#CC(C)(C)C)cc12", "72%"],
  ["COCCCNC(=O)CNC(=O)c1cc(C)c2cc(C3CC3)cc(C(F)(F)F)c2n1", "84.5%"],
  ["Cc1cc(-c2nnc(NCC(O)CO)s2)nc2c(C(F)(F)F)cc(C3CC3)cc12 (centres unmarked)", "99.6%"],
  ["Cc1cc(C(=O)NCc2ccccn2)nc2c(C(F)(F)F)cc(C(C)(C)O)cc12", "76.7%"],
  ["C#Cc1cc(C(F)(F)F)c2nc(C(=O)NCc3ccccn3)cc(C)c2c1", "99.4%"],
  ["CC(=O)Nc1cc(C(F)(F)F)c2nc(C(=O)NCc3ccccn3)cc(C)c2c1", "94.7%"],
  ["N#Cc1cc(C(=O)NCc2ccccn2)nc2c(C(F)(F)F)cc(C3CC3)cc12", "99.4%"]
]}

Field: next molecule
stdin: Entry Cc1cc(-c2nnc(Nc3ccccc3)o2)nc2c(C(F)(F)F)cc(C3CC3)cc12 has what inhibition at 10 µM?
stdout: 100%
